Test system: THRa homodimer (NR concentration 90 nM)
Assay: PBM binding z-score (relative to random genomic background probes); higher = stronger binding; sequences stand for … in GC…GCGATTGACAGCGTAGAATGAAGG
PARAMETER: PBM binding z-score
Please state the value as a number alone, without comment.

Prompt: Provide PBM binding z-score value for the following sequence: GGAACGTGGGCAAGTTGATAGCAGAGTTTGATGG
Response: -0.691

Prompt: Provide PBM binding z-score value for the following sequence: TGAATGAGGTTATAAGATCAGGGAGCGTTGCAAA
Response: -0.245

Prompt: Provide PBM binding z-score value for the following sequence: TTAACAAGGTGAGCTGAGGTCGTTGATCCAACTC
Response: 2.04

Prompt: Provide PBM binding z-score value for the following sequence: TCTTGTAGATCAACAGGAGGTTATGAAAGATCGA
Response: -0.681

Prompt: Provide PBM binding z-score value for the following sequence: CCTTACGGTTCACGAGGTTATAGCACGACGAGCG
Response: 1.26

Prompt: Provide PBM binding z-score value for the following sequence: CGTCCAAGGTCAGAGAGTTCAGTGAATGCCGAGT
Response: 2

Prompt: Provide PBM binding z-score value for the following sequence: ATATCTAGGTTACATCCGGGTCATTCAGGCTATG
Response: 3.37

Prompt: Provide PBM binding z-score value for the following sequence: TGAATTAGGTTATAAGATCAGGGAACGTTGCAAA
Response: 0.0659

Prompt: Provide PBM binding z-score value for the following sequence: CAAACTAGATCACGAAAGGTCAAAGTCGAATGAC
Response: 1.07

Prompt: Provide PBM binding z-score value for the following sequence: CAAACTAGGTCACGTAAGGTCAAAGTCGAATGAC
Response: 5.19

Prompt: Provide PBM binding z-score value for the following sequence: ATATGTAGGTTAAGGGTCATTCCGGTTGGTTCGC
Response: 1.62

Prompt: Provide PBM binding z-score value for the following sequence: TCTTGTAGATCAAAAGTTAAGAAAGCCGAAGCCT
Response: -1.33

Prompt: Provide PBM binding z-score value for the following sequence: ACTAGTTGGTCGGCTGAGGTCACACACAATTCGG
Response: 5.24

Prompt: Provide PBM binding z-score value for the following sequence: CCTAATGGGCCAAGGTCATTGATCAGTCAAAGCA
Response: 2.52

Prompt: Provide PBM binding z-score value for the following sequence: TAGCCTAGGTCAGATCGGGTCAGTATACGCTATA
Response: 1.29

Prompt: Provide PBM binding z-score value for the following sequence: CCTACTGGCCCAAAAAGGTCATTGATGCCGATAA
Response: 1.13

Prompt: Provide PBM binding z-score value for the following sequence: CCTTACGTGTCACTGACAGGTTATAGCATTTGGA
Response: 0.847

###

Tested on: RARg homodimer (NR concentration 270 nM)
Test: PBM binding z-score (relative to random genomic background probes); higher = stronger binding; sequences stand for … in GC…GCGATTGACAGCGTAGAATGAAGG
Use 2 as the dividing line for PBM binding z-score, with the line itself on the 1 side and lower values as -1.

Prompt: For this sequence, is measured PBM binding z-score 2 or higher? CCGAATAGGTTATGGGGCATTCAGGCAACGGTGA
Response: -1

Prompt: For this sequence, is measured PBM binding z-score 2 or higher? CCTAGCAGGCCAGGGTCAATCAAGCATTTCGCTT
Response: 1

Prompt: For this sequence, is measured PBM binding z-score 2 or higher? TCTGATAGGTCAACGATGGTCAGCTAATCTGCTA
Response: 1

Prompt: For this sequence, is measured PBM binding z-score 2 or higher? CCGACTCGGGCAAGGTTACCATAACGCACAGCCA
Response: -1

Prompt: For this sequence, is measured PBM binding z-score 2 or higher? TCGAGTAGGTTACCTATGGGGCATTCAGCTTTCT
Response: -1

Prompt: For this sequence, is measured PBM binding z-score 2 or higher? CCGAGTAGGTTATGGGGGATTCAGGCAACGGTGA
Response: -1

Prompt: For this sequence, is measured PBM binding z-score 2 or higher? CCTCGGACGACAGAAGGTCAGAGCTGTCCGCTTT
Response: 1

Prompt: For this sequence, is measured PBM binding z-score 2 or higher? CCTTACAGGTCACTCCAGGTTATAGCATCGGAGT
Response: 1

Prompt: For this sequence, is measured PBM binding z-score 2 or higher? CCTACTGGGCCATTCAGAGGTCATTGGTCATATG
Response: 1

###

System: RXRa homodimer (NR concentration 180 nM)
Test: PBM binding z-score (relative to random genomic background probes); higher = stronger binding; sequences stand for … in GC…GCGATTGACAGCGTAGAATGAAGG
PARAMETER: PBM binding z-score
Please state the value as a number alone, without comment.

Prompt: Provide PBM binding z-score value for the following sequence: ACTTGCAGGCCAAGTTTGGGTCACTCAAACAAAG
Response: 1.01

Prompt: Provide PBM binding z-score value for the following sequence: CCTATTAGTTGACCATAAGGGCAACTGAAGCTCG
Response: 0.69

Prompt: Provide PBM binding z-score value for the following sequence: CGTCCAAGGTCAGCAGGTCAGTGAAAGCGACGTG
Response: 4.82

Prompt: Provide PBM binding z-score value for the following sequence: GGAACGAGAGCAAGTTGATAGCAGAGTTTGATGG
Response: 0.0687

Prompt: Provide PBM binding z-score value for the following sequence: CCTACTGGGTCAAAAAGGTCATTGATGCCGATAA
Response: 6.62

Prompt: Provide PBM binding z-score value for the following sequence: CCGAGTAGCTTATGGGGCATTCAGGCAACGGTGA
Response: -0.245

Prompt: Provide PBM binding z-score value for the following sequence: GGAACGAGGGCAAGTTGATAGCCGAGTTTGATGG
Response: 0.956

Prompt: Provide PBM binding z-score value for the following sequence: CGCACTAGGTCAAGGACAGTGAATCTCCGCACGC
Response: 2.63

Prompt: Provide PBM binding z-score value for the following sequence: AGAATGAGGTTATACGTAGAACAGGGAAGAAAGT
Response: 2.13

Prompt: Provide PBM binding z-score value for the following sequence: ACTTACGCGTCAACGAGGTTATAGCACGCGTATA
Response: 1.09

Prompt: Provide PBM binding z-score value for the following sequence: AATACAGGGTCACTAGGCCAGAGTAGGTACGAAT
Response: 5.52

Prompt: Provide PBM binding z-score value for the following sequence: ATCTCTAGGTAAAGTTCAGTTAAAGATCGATAGA
Response: 1.5

Prompt: Provide PBM binding z-score value for the following sequence: ATCTCTTGGTAACCAAGTTCAGTGAATGCCGAAC
Response: 0.509

Prompt: Provide PBM binding z-score value for the following sequence: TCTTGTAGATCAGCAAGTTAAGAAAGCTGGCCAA
Response: -0.136

Prompt: Provide PBM binding z-score value for the following sequence: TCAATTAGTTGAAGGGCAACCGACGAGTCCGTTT
Response: 0.562

Prompt: Provide PBM binding z-score value for the following sequence: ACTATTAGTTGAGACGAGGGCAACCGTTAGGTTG
Response: 0.373

###

Test system: THRa:RXRa (NR concentration 90 nM, RXRa partner concentration 90 nM)
Experiment: PBM binding z-score (relative to random genomic background probes); higher = stronger binding; sequences stand for … in GC…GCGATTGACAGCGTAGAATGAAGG
PARAMETER: PBM binding z-score

Prompt: Provide PBM binding z-score value for the following sequence: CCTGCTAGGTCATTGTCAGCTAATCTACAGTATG
Response: 2.61

Prompt: Provide PBM binding z-score value for the following sequence: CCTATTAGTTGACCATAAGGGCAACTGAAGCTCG
Response: 1.99

Prompt: Provide PBM binding z-score value for the following sequence: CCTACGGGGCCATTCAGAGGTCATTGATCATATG
Response: 3.72

Prompt: Provide PBM binding z-score value for the following sequence: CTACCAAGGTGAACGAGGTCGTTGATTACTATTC
Response: 3.36

Prompt: Provide PBM binding z-score value for the following sequence: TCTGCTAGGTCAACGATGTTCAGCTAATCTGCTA
Response: 2.73

Prompt: Provide PBM binding z-score value for the following sequence: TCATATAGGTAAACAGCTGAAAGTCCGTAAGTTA
Response: 0.172

Prompt: Provide PBM binding z-score value for the following sequence: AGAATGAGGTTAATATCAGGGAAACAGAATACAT
Response: 2.36

Prompt: Provide PBM binding z-score value for the following sequence: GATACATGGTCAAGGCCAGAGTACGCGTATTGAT
Response: 0.149

Prompt: Provide PBM binding z-score value for the following sequence: TCTTGTAGATCAACAGGAGGTTAAGAAGGATCGA
Response: 0.94

Prompt: Provide PBM binding z-score value for the following sequence: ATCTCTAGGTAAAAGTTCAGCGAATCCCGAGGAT
Response: 1.58

Prompt: Provide PBM binding z-score value for the following sequence: CCTGTTAGGTCATGGTCAGCTAATCTACAGTATG
Response: 3.73

Prompt: Provide PBM binding z-score value for the following sequence: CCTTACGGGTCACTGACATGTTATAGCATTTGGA
Response: 2.61

Prompt: Provide PBM binding z-score value for the following sequence: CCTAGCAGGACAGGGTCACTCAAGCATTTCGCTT
Response: 3.19

Prompt: Provide PBM binding z-score value for the following sequence: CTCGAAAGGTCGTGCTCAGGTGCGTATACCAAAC
Response: 2.69

Prompt: Provide PBM binding z-score value for the following sequence: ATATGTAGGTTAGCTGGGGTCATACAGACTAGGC
Response: 5.18

Prompt: Provide PBM binding z-score value for the following sequence: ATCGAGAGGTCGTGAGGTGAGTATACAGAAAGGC
Response: 3.36

Prompt: Provide PBM binding z-score value for the following sequence: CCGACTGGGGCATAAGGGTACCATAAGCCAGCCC
Response: -0.0868

Prompt: Provide PBM binding z-score value for the following sequence: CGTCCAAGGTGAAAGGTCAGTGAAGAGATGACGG
Response: 3.97
